- Test system: MELK (human)
- Measurement notes: KINOMEscan competition binding
- Test conditions: compound 10.0 µM
Listing: kinase still bound, per cent of control of selected compounds
Recorded endpoint: kinase still bound, per cent of control

INSERT INTO assay_data (chemical_string, assay_value) VALUES
  ('COc1cc2ncnc(-n3nc(-c4ccccn4)nc3N)c2cc1OC', '9.2%'),
  ('CCN(CC)CCCCNc1ncc2c(n1)N(C)C(=O)N(c1c(Cl)c(OC)cc(OC)c1Cl)C2', '100%'),
  ('CCN(CC)CCCCNc1ncc2cc(-c3cc(OC)cc(OC)c3)c(NC(=O)NC(C)(C)C)nc2n1', '100%'),
  ('CNC(=O)c1ccc(Nc2cc(Nc3ccccc3S(=O)(=O)C(C)C)c3cc[nH]c3n2)nc1', '100%'),
  ('CN(C)C/C=C/C(=O)Nc1ccc(C(=O)Nc2cccc(Nc3nccc(-c4cccnc4)n3)c2)cc1', '58%'),
  ('C=CC(=O)Nc1cc(-n2c(=O)ccc3cnc4ccc(-c5cn[nH]c5)cc4c32)ccc1C', '43%'),
  ('NC(=O)Nc1cc(-c2cccc(F)c2)sc1C(=O)N[C@@H]1CCCNC1', '1.4%'),
  ('N#CCNC(=O)c1ccc(-c2ccnc(Nc3ccc(N4CCOCC4)cc3)n2)cc1', '100%'),
  ('COCC(=O)NC/C=C/c1ccc2ncnc(Nc3ccc(Oc4ccc(C)nc4)c(C)c3)c2c1', '92%'),
  ('O=C(Nc1cccc(Nc2ncc(Br)c(NCCc3cnc[nH]3)n2)c1)N1CCCC1', '2.2%'),
  ('C[C@@H](Oc1cc(-c2cnn(C3CCNCC3)c2)cnc1N)c1c(Cl)ccc(F)c1Cl', '47%'),
  ('C=CC(=O)Nc1ccc(CN(C(=O)Nc2c(Cl)c(OC)cc(OC)c2Cl)c2cc(Nc3ccc(N4CCN(C)CC4)cc3)ncn2)cc1', '100%'),
  ('Cc1n[nH]c2ccc(-c3cncc(OC[C@@H](N)Cc4c[nH]c5ccccc45)c3)cc12', '12%'),
  ('CS(=O)(=O)N1CCN(Cc2cc3nc(-c4cccc5[nH]ncc45)nc(N4CCOCC4)c3s2)CC1', '100%'),
  ('O=c1cc(N2CCOCC2)oc2c(-c3cccc4c3sc3ccccc34)cccc12', '100%'),
  ('COc1ccc(N(C(=O)Oc2c(C)cccc2C)c2ccnc(Nc3ccc(N4CCN(C)CC4)cc3)n2)c(OC)c1', '46%'),
  ('CNC(=O)c1cc(Oc2ccc(NC(=O)Nc3ccc(Cl)c(C(F)(F)F)c3)cc2)ccn1', '100%'),
  ('CCN1CCN(C(=O)Cc2ccc(Nc3ncc(F)c(Nc4ccc(C(=O)Nc5ccccc5Cl)cc4)n3)cc2)CC1', '55%'),
  ('COc1cc2ncn(-c3cc(OCc4ccccc4C(F)(F)F)c(C(N)=O)s3)c2cc1OC', '61%');

----------
- Test system: CDK18 (human) (UniProt Q07002)
- Sequence (Q07002 whole entry, looked up): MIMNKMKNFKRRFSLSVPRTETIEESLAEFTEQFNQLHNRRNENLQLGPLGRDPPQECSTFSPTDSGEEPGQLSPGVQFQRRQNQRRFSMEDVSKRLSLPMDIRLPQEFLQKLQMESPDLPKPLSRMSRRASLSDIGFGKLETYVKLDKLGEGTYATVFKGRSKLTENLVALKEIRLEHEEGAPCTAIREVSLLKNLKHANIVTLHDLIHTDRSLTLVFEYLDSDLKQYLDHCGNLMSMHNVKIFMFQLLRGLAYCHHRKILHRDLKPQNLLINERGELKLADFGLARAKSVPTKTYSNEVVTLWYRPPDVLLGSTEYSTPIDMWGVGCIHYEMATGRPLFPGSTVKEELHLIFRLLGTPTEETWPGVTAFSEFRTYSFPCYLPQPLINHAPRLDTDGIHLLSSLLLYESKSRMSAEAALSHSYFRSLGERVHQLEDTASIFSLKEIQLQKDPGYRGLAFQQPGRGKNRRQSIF
- Measurement notes: KINOMEscan competition binding
- Test conditions: compound 10.0 µM
# if measured kinase still bound, per cent of control < 90%: fulfilled  # else: not fulfilled

INSERT INTO results (chemical_string, test_system, group) VALUES
  ('Cc1n[nH]c2ccc(-c3cncc(OC[C@@H](N)Cc4c[nH]c5ccccc45)c3)cc12', 'CDK18 (human) (UniProt Q07002)', 'fulfilled'),
  ('C[C@@H](Oc1cc(-c2cnn(C3CCNCC3)c2)cnc1N)c1c(Cl)ccc(F)c1Cl', 'CDK18 (human) (UniProt Q07002)', 'not fulfilled'),
  ('CS(=O)(=O)N1CCN(Cc2cc3nc(-c4cccc5[nH]ncc45)nc(N4CCOCC4)c3s2)CC1', 'CDK18 (human) (UniProt Q07002)', 'not fulfilled'),
  ('O=C1NC(=O)/C(=C/c2ccc3nccc(-c4ccncc4)c3c2)S1', 'CDK18 (human) (UniProt Q07002)', 'fulfilled'),
  ('COc1cc2ncnc(-n3nc(-c4ccccn4)nc3N)c2cc1OC', 'CDK18 (human) (UniProt Q07002)', 'fulfilled');

----------
- Test system: CDK11B (human)
- Measurement notes: KINOMEscan competition binding
- Test conditions: compound 10.0 µM
Listing: kinase still bound, per cent of control of selected compounds
Recorded endpoint: kinase still bound, per cent of control (%)

INSERT INTO measurements (chemical_string, recorded_endpoint, assay_value) VALUES
  ('O=c1cc(N2CCOCC2)oc2c(-c3cccc4c3sc3ccccc34)cccc12', 'kinase still bound, per cent of control', 95),
  ('CN(C)C/C=C/C(=O)Nc1ccc(C(=O)Nc2cccc(Nc3nccc(-c4cccnc4)n3)c2)cc1', 'kinase still bound, per cent of control', 91),
  ('C[C@@H](Oc1cc(-c2cnn(C3CCNCC3)c2)cnc1N)c1c(Cl)ccc(F)c1Cl', 'kinase still bound, per cent of control', 0.1),
  ('CCN1CCN(C(=O)Cc2ccc(Nc3ncc(F)c(Nc4ccc(C(=O)Nc5ccccc5Cl)cc4)n3)cc2)CC1', 'kinase still bound, per cent of control', 87);

----------
- Test system: PHKG2 (human)
- Measurement notes: KINOMEscan competition binding
- Test conditions: compound 10.0 µM
Listing: kinase still bound, per cent of control of selected compounds
Recorded endpoint: kinase still bound, per cent of control (%)

INSERT INTO assay_data (chemical_string, test_system, recorded_endpoint, unit_label, assay_value) VALUES
  ('CCN(CC)CCCCNc1ncc2c(n1)N(C)C(=O)N(c1c(Cl)c(OC)cc(OC)c1Cl)C2', 'PHKG2 (human)', 'kinase still bound, per cent of control', '%', 100),
  ('CNC(=O)c1cc(Oc2ccc(NC(=O)Nc3ccc(Cl)c(C(F)(F)F)c3)cc2)ccn1', 'PHKG2 (human)', 'kinase still bound, per cent of control', '%', 100),
  ('COc1ccc(N(C(=O)Oc2c(C)cccc2C)c2ccnc(Nc3ccc(N4CCN(C)CC4)cc3)n2)c(OC)c1', 'PHKG2 (human)', 'kinase still bound, per cent of control', '%', 100);

----------
- Tested on: FLT3 (human), P36888 [D835H]
- Measurement notes: KINOMEscan competition binding
- Test conditions: compound 10.0 µM
# if measured kinase still bound, per cent of control < 30%: Criterion met  # else: Criterion not met

INSERT INTO measurements (molecule, group) VALUES
  ('N#C/C(=C1/Nc2ccccc2S1)c1ccnc(NCCc2cccnc2)n1', 'Criterion not met'),
  ('COc1cc2ncnc(-n3nc(-c4ccccn4)nc3N)c2cc1OC', 'Criterion met'),
  ('COc1cc(C(=O)NC2CCN(C)CC2)ccc1Nc1ncc2c(n1)N(C1CCCC1)C(C)CC(=O)N2C (stereo not drawn)', 'Criterion not met'),
  ('COc1cc(C)c(Sc2cnc(NC(=O)c3ccc(CNC(C)C(C)C)cc3)s2)cc1C(=O)N1CCN(C(C)=O)CC1 (stereo not drawn)', 'Criterion met'),
  ('O=C1NC(=O)/C(=C/c2ccc3nccc(-c4ccncc4)c3c2)S1', 'Criterion not met'),
  ('CCN1CCN(Cc2ccc(Nc3ncc4c(n3)N(C)c3ccccc3C(=O)N4C)cc2C(F)(F)F)CC1', 'Criterion met'),
  ('CCN1CCN(Cc2ccc(NC(=O)c3ccc(C)c(/C=C/c4cnc5[nH]ccc5c4OC)c3)cc2C(F)(F)F)CC1', 'Criterion met'),
  ('O=c1cc(N2CCOCC2)oc2c(-c3cccc4c3sc3ccccc34)cccc12', 'Criterion not met'),
  ('Nc1ccc(-c2ccc3ncc4ccc(=O)n(-c5cccc(C(F)(F)F)c5)c4c3c2)cn1', 'Criterion met'),
  ('Cc1cn(-c2cc(C(=O)Nc3ccc(C)c(NC(=O)c4ccno4)c3)cc(C(F)(F)F)c2)cn1', 'Criterion not met'),
  ('NC(=O)Nc1cc(-c2cccc(F)c2)sc1C(=O)N[C@@H]1CCCNC1', 'Criterion met'),
  ('O=c1[nH]c2ccccc2n1C1CCN(Cc2ccc(-c3nc4cc5[nH]cnc5cc4nc3-c3ccccc3)cc2)CC1', 'Criterion not met'),
  ('CCCS(=O)(=O)Nc1ccc(F)c(C(=O)c2c[nH]c3ncc(Cl)cc23)c1F', 'Criterion not met'),
  ('CCN(CC)CCCCNc1ncc2c(n1)N(C)C(=O)N(c1c(Cl)c(OC)cc(OC)c1Cl)C2', 'Criterion not met'),
  ('CNC(=O)Nc1ccc(-c2nc(N3CC4CCC(C3)O4)c3cnn(C4CCC5(CC4)OCCO5)c3n2)cc1', 'Criterion not met'),
  ('CCOc1cc2ncc(C#N)c(Nc3ccc(OCc4ccccn4)c(Cl)c3)c2cc1NC(=O)/C=C/CN(C)C', 'Criterion not met'),
  ('C=CC(=O)Nc1cc(-n2c(=O)ccc3cnc4ccc(-c5cn[nH]c5)cc4c32)ccc1C', 'Criterion met'),
  ('CN(C)C/C=C/C(=O)Nc1ccc(C(=O)Nc2cccc(Nc3nccc(-c4cccnc4)n3)c2)cc1', 'Criterion met');

----------
Listing: kinase still bound, per cent of control of selected compounds
- Test system: CDK7 (human)
- Measurement notes: KINOMEscan competition binding
- Test conditions: compound 10.0 µM
Recorded endpoint: kinase still bound, per cent of control (%)

INSERT INTO measurements (chemical_string, recorded_endpoint, assay_value) VALUES
  ('Cc1n[nH]c2ccc(-c3cncc(OC[C@@H](N)Cc4c[nH]c5ccccc45)c3)cc12', 'kinase still bound, per cent of control', 0.3),
  ('CN(C)C/C=C/C(=O)Nc1ccc(C(=O)Nc2cccc(Nc3nccc(-c4cccnc4)n3)c2)cc1', 'kinase still bound, per cent of control', 3.2),
  ('O=c1cc(N2CCOCC2)oc2c(-c3cccc4c3sc3ccccc34)cccc12', 'kinase still bound, per cent of control', 100),
  ('O=C1NC(=O)/C(=C/c2ccc3nccc(-c4ccncc4)c3c2)S1', 'kinase still bound, per cent of control', 1.7),
  ('CCN1CCN(C(=O)Cc2ccc(Nc3ncc(F)c(Nc4ccc(C(=O)Nc5ccccc5Cl)cc4)n3)cc2)CC1', 'kinase still bound, per cent of control', 22),
  ('NC(=O)Nc1cc(-c2cccc(F)c2)sc1C(=O)N[C@@H]1CCCNC1', 'kinase still bound, per cent of control', 4.9),
  ('C[C@@H](Oc1cc(-c2cnn(C3CCNCC3)c2)cnc1N)c1c(Cl)ccc(F)c1Cl', 'kinase still bound, per cent of control', 1.2),
  ('COc1ccc(N(C(=O)Oc2c(C)cccc2C)c2ccnc(Nc3ccc(N4CCN(C)CC4)cc3)n2)c(OC)c1', 'kinase still bound, per cent of control', 100),
  ('C=CC(=O)Nc1cc(-n2c(=O)ccc3cnc4ccc(-c5cn[nH]c5)cc4c32)ccc1C', 'kinase still bound, per cent of control', 3.8);

Taken from the kinase profiling compilation of Christmann-Franck et al. (2016).
